Experiment: inhibitors of TNFa-induced NFkB p65 translocation, primary screen, imaging, HUVEC, MLSMR starter and 10KST1 sets (AID 438);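 also: compound added about 3h40 before a 20 min TNFalpha stimulation; signal is the nuclear over cytoplasmic p65 intensity ratio per well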
Details: HUVEC TNFa-induced p65 nuclear translocation; at 2 µM, active compounds read high, 0% TNFa-plus-vehicle, 100% no-TNFa wells
I'd appreciate it if you could supply inhibition values for the items below.
Answers are plain numbers, in %.

* CCC1(C)Cc2c(C#N)c(N)sc(=S)c2CO1 (configuration not stated) | -3.2
* CC(=O)c1cc(C#N)c(SCC(=O)C(C)(C)C)nc1C | -22.5
* CC(C)N1CCc2c(sc(N)c2C#N)C1 | -10.3
* CC(COc1ccccc1)NC(C)C(O)c1ccc(O)cc1 (configuration not stated) | -7.4
* CN(CCO)CC(O)Cn1cnc2c1c(=O)n(C)c(=O)n2C (configuration not stated) (tested in a mixture with another compound) | -0.3
* COc1cccc(C2/C(=C(/O)c3ccc(C)cc3)C(=O)C(=O)N2Cc2ccco2)c1 (configuration not stated) | -6.3
* Cc1ccccc1-c1nn2c(-c3ccccc3)nnc2s1 | -20
* Nc1nc(Cl)nc2c1ncn2[C@@H]1O[C@H](CO)[C@@H](O)[C@H]1O | -14.6

Lab note: each molecule below needs its inhibition filled in.
1. COC(=O)CC1=C(C(=O)OC)C(c2ccncc2)C(C#N)=C(N)O1 (configuration not stated)
2. CCOC(=O)[C@H](CCc1ccccc1)N[C@@H](C)C(=O)N1CCC[C@H]1C(=O)O
3. O=C(CCC(=O)CCN1CCCCC1)CCN1CCCCC1

**Result**
1. -3.8
2. -1.7
3. -2.1
